test system: NCI-H226 lung; test: NCI tumour cell line growth inhibition, 48 h
If the reported TGI equals or exceeds 40 µM, assign met. If not, assign not met.

IN: Exam item: decide whether the reported TGI for Oc1ccc(-c2nnc3sc(-c4ccc(F)c(Oc5ccccc5)c4)nn23)cc1 is at least 40 µM.
OUT: met

IN: Quick one: CCN(CC)CC(=O)Nc1c(C(N)=O)nnn1Cc1cc(Cl)c(C(=O)c2ccc(Cl)cc2)c(Cl)c1
OUT: not met

IN: Quick one: Cc1ccc2c(c1)C(=O)/C(=C\c1ccccc1)CCS2(=O)=O
OUT: met

IN: Quick one: OC12c3ccccc3C1(N1CCOCC1)CCCCC21OCCCO1 (stereo not drawn)
OUT: met

IN: Quick one: CC1=NN(c2nc(N)nc(CCl)n2)CC1
OUT: met

IN: Quick one: S=C1SC(=Nc2ccccc2)C(=Nc2ccccc2)N1c1ccccc1
OUT: met

IN: Quick one: C=CC(Cl)(CBr)CCC(Br)=C(C)C (stereo not drawn)
OUT: met

IN: Quick one: O=c1[nH]c(Nc2ccc(F)c(Cl)c2)nc2nc[nH]c12
OUT: met

IN: Quick one: OC(c1nc2ccccc2s1)(C(F)(F)F)C(F)(F)F
OUT: met

IN: Quick one: CC1=C(C)C(=O)O[C@@H]([C@](C)(O)[C@]2(O)CC[C@@]3(O)[C@@H]4C[C@H]5O[C@]56[C@@H](O)C=CC(=O)[C@]6(C)[C@H]4CC[C@]23C)C1
OUT: not met

IN: Quick one: COc1cc(O)cc(/C=C/c2ccc(O)cc2)c1
OUT: met

---

test system: OVCAR-8 ovarian; test: NCI tumour cell line growth inhibition, 48 h
measurement_label: TGI

IN: Tell me the measured TGI of COc1cc(C2=NN(C)C(c3ccc([N+](=O)[O-])o3)C2)cc(OC)c1OC (stereo unspecified) , please.
OUT: > 100 µM

IN: Quick one: COC(=O)CCCN(C)c1n[nH]c(N)n1
OUT: > 100 µM

IN: Quick one: O=S1(=O)OCCOS(=O)(=O)C1I
OUT: > 100 µM

IN: Quick one: Cc1nc(C)c(C(=O)NNC(=O)Cc2ccccc2)cc1C(=O)NNC(=O)Cc1ccccc1
OUT: > 100 µM

IN: Quick one: COc1cc2nc(-c3cnc(N(C)C)nc3)nc(NC3CCN(Cc4ccccc4)CC3)c2cc1OC
OUT: 3.97 µM

IN: Quick one: C=CCc1cc(-c2cc(CC=C)c(O)c(CN(CCCl)CCCl)c2)cc(CN(CCCl)CCCl)c1O
OUT: 74.1 µM

IN: Quick one: C1=Cc2ccccc2Nc2ccccc21
OUT: > 100 µM

IN: Quick one: Cc1ccc(/C(O)=C/c2nc3ccccc3oc2=O)cc1
OUT: > 100 µM

IN: Quick one: CC1(c2ccc(F)cc2)CC(c2ccc(F)cc2)=C(C#N)C(=C(C#N)C#N)N1 (stereo unspecified)
OUT: 54 µM

IN: Quick one: Cc1ccc(S(=O)(=O)N2CCN(S(=O)(=O)c3ccc(C)cc3)Cc3ccccc3C2)cc1
OUT: > 100 µM

IN: Quick one: Cc1ccc([N+](=O)[O-])c2c(NCCNC(=O)Cn3ccnc3[N+](=O)[O-])ccnc12
OUT: > 100 µM

---

test system: LOX IMVI melanoma; test: NCI tumour cell line growth inhibition, 48 h
measurement_label: TGI

IN: Tell me the measured TGI of COc1ccc(C(=O)C(c2ccc(OC)cc2)C2(O)C(=O)Nc3ccccc32)cc1 (stereo unspecified) , please.
OUT: > 100 µM

IN: Quick one: CCC[CH2][Sn]1([CH2]CCC)[O]C(=O)c2cc(I)cc(I)c2[O]1
OUT: 2.39 µM

IN: Quick one: C[C@H]1O[C@@H](c2c(O)ccc3ccccc23)C[C@@H](N(C)C)C1O (stereo partly specified)
OUT: > 100 µM

IN: Quick one: COc1cc(/C=C2\[C@H]3c4c(c(OC)c(C)c(OC)c4OC)C[C@@H](C(=O)N2Cc2ccccc2)N3C(=O)OCC(C)C)c(OC)c(C)c1OC
OUT: > 100 µM

IN: Quick one: Cc1c(Cl)ccc2c1NC(=O)C2(O)C(C(=O)c1ccccc1)c1ccccc1 (stereo unspecified)
OUT: > 100 µM

IN: Quick one: CC1C(=O)OC2CC[N+]3(CC(=O)c4ccc(Br)cc4)CC=C(COC(=O)C(C)(O)C1(C)O)C23 (stereo unspecified)
OUT: > 375 µM

---

tested on: HOP-18 NSCLC; assay: NCI tumour cell line growth inhibition, 48 h
Kindly state TGI for each of the entries shown.

IN: Tell me the measured TGI of CCOC(=O)/C(O)=C(/c1n[nH]c(=O)c2ccccc12)[N+](=O)[O-] , please.
OUT: > 100 µM

IN: Quick one: CN(C)CCNC(=O)c1cc2ccccc2c2nc3ccccc3nc12
OUT: > 22.9 µM

IN: Quick one: Cc1cc(NS(=O)(=O)c2ccc(N=Nc3cc(N=Nc4ccc(S(=O)(=O)Nc5cc(C)nc(C)n5)cc4)c4c(NC(=O)C(Cl)Cl)cccc4c3OC(=O)C(Cl)Cl)cc2)nc(C)n1 (tested in a mixture with another compound)
OUT: 34.1 µM

IN: Quick one: COc1cc(C2=NN(C)C(c3ccc([N+](=O)[O-])o3)C2)cc(OC)c1OC (stereo unspecified)
OUT: > 100 µM

IN: Quick one: COc1ccc(N2C(=O)C3c4[nH]c5ccccc5c4C4CCCCCCCCCCC4C3C2=O)cc1 (stereo unspecified)
OUT: 6.53 µM

IN: Quick one: COc1ccc2c(=O)c(C)c(-c3ccccc3)oc2c1CN(C)C
OUT: > 100 µM

IN: Quick one: CC1C(=O)OC2CC[N+]3(CC(=O)c4ccc(Br)cc4)CC=C(COC(=O)C(C)(O)C1(C)O)C23 (stereo unspecified)
OUT: > 375 µM

IN: Quick one: CC1=C(C)C(=O)O[C@@H]([C@](C)(O)[C@]2(O)CC[C@@]3(O)[C@@H]4C[C@H]5O[C@]56[C@@H](O)C=CC(=O)[C@]6(C)[C@H]4CC[C@]23C)C1
OUT: 2.44 µM

IN: Quick one: C=CCCC(OCOCCOC)c1cc(C)c(O[Si](C)(C)C(C)(C)C)c(C)c1 (stereo unspecified)
OUT: 96.4 µM

IN: Quick one: COC(=O)CCC(=O)CC(=O)C1=NS(=O)(=O)c2nc(S(N)(=O)=O)c(Cl)cc2N1
OUT: > 100 µM

IN: Quick one: CC(=O)[CH-]C(=O)c1ccccc1.CC(=O)[CH-]C(=O)c1ccccc1.CC[O-].CC[O-].[Zr+4]
OUT: > 100 µM

---

Kindly state TGI for each of the entries shown.
system: NCI-H522 lung; experiment: NCI tumour cell line growth inhibition, 48 h

IN: Tell me the measured TGI of C[C@@H]1CN(C(=O)c2ccc(NC(=O)c3cc(O[C@H](C)c4c(Cl)ccc(F)c4Cl)c(N)nn3)cc2)C[C@H](C)N1 , please.
OUT: 12.2 µM

IN: Quick one: CCOC(=O)c1cc2c(ccc3cc(C(=O)OCC)[nH]c32)[nH]1
OUT: > 100 µM

IN: Quick one: Nc1ccccc1CCCC(=O)O
OUT: > 100 µM

IN: Quick one: COC(=O)c1ccc(OCc2ccc3nc(OC)c(OC)nc3c2)cc1
OUT: > 100 µM

IN: Quick one: COc1cc(N=CN(C)C)c2ncccc2c1
OUT: > 100 µM

IN: Quick one: C/C(CC(=O)Nc1ccc(Cl)c(Cl)c1)=N/NC(=O)C[n+]1ccccc1
OUT: > 100 µM

IN: Quick one: CSc1c(C(=O)Nc2ccc(Cl)cc2)c(N)nn1-c1ccccc1
OUT: > 100 µM

IN: Quick one: Cc1nn(-c2nc3ccccc3s2)c(C)c1Oc1ccccc1O
OUT: 28.9 µM

IN: Quick one: CCC[CH2][Sn]1([CH2]CCC)[O]C(=O)c2cc(I)cc(I)c2[O]1
OUT: 0.323 µM

IN: Quick one: COc1cc(O)cc(/C=C/c2ccc(O)cc2)c1
OUT: > 100 µM

IN: Quick one: Cn1c2ccccc2c2c(-c3ccccc3)[n+]3ccccc3nc21
OUT: 69.7 µM

IN: Quick one: CC(C)(C)OC(=O)N(O)[C@@H]1C=C[C@H](n2cnc3c(N)ncnc32)C1
OUT: > 100 µM

IN: Quick one: COC(=O)/C=C1/CCC2[C@@H](C(=O)CC3[C@]2(C)CCC[C@@]3(C)C(=O)OC)C1C (some centres undefined)
OUT: 19.7 µM

IN: Quick one: COc1ccc2c(=O)c(C)c(-c3ccccc3)oc2c1CN(C)C
OUT: > 100 µM

---

system: SN12C renal; experiment: NCI tumour cell line growth inhibition, 48 h
Kindly state GI50 for each of the entries shown.

IN: State its GI50 on SN12C renal: CCN(CC)CCCC(C)Nc1cnc(C(=O)Nc2ccc(Cl)c3cccnc23)cn1 (stereo not drawn)
OUT: 2190 nM

IN: Quick one: O=C1CC(c2ccc(N3CCOCC3)cc2)(c2ccsc2)NC(=O)C1Sc1ccccc1Cl (stereo not drawn)
OUT: 10100 nM

IN: Quick one: CCC(C)(C)C(=O)O[C@H]1C[C@@H](C)C=C2C=C[C@H](C)[C@H](CC[C@@H]3C[C@@H](O)CC(=O)O3)[C@H]21
OUT: 949 nM
